Reference for the values: PubChem BioAssay (NCI)

tested on: HL-60(TB) leukemia; assay: NCI-60 one-dose screen, 48 h; details: 10 µM unless noted
About 83,000 compounds went through this panel and 20% of them were active in at least one assay; those are over-represented in the sample as a whole. Calls of active or inactive are those of the source. The calls were made as follows: active = growth percent below 10; inactive = the rest.
I would appreciate it if you answered using one of these outcomes: active, inactive

>>> df
                                   compound  class_name
0  Cc1csc(NC(=O)c2sc3nc(-c4cccs4)ccc3c2N)n1    inactive
1  O=C(COc1cccc(/C=C2\Oc3ccc4ccccc4c3C2=O)c1)c1ccc([N+](=O)[O-])cc1    inactive
2  COc1ccc(-n2nc(C)c3c(Nc4ccc(NC(=O)Nc5cccc(C(F)(F)F)c5)cc4)ncnc32)cc1      active
3  CN(C)CCNC(=O)c1cccn2c(=O)c3cc4ccccc4cc3nc12      active
4  O=C1N[C@@H]2[C@@H](O)[C@@H](O)[C@H](O)C[C@H]2c2cc3c(c(O)c21)OCCO3      active
5  O=C(Nc1ccc(Nc2ccncc2)cc1)c1ccc(C(=O)Nc2ccc(Nc3ccncc3)cc2)cc1    inactive

Input line: In this assay, the call recorded for "O=c1c2cccc3c(N4CCOCC4)ccc(c32)c2nc3ccccc3n12" was what?
Output line: inactive

###

Test system: HL-60(TB) leukemia
Experiment: NCI-60 one-dose screen, 48 h
Settings: 10 µM unless noted
Method: Growth inhibition of the HL-60(TB) human tumor cell line is measured as a screen for anti-cancer activity. Cells are grown in 96 well plates and exposed to the test compound for 48 hours. Compounds are tested at a single concentration, which is 10^-5 M for most compounds. The reported endpoint is percent growth (GI% or GIPRCNT), where numbers from 0 - 100% represent growth inhibition, and numbers from -100% - 0 represent cell death. For example, a value of 40 represents 60% growth inhibition. […]
The panel holds about 83,000 compounds, 20% with a hit somewhere; the sample as a whole holds those more often. Calls of active or inactive are those of the source. Rule for the calls: active = growth percent below 10; inactive = the rest.
I would appreciate it if you answered using one of these outcomes: yes (1) for active, no (0) for inactive

In [3]: df
Out[3]:
                                   compound       tested_system  class_name
0  COc1cccc(/C=C/C(=O)c2cc3c(N)c(C(=O)Nc4cccc5ccccc45)sc3nc2C)c1  HL-60(TB) leukemia     yes (1)
1                  NC(N)=N/N=C/c1cccc(Br)c1  HL-60(TB) leukemia      no (0)
2  O=C(CN1C(=O)S/C(=C\c2ccccc2)C1=O)Nc1ncc(Cc2ccccc2Cl)s1  HL-60(TB) leukemia      no (0)
3                       O=Cc1nc2ccccc2[nH]1  HL-60(TB) leukemia      no (0)
4  COC(=O)c1c(C)nc(Nc2nc3ccccc3s2)nc1-c1ccc(Cl)cc1Cl  HL-60(TB) leukemia      no (0)

Input line: In this assay, the call recorded for COc1ccc(C[C@H](N)C(=O)N[C@@H]2[C@@H](CO)OC(n3cnc4c(N(C)C)ncnc43)[C@@H]2O)cc1 (stereo not given in full) was what?
Output line: yes (1)

Input line: In this assay, the call recorded for "O=c1[nH]c2ccccc2cc1-c1nc2ccncc2[nH]1" was what?
Output line: no (0)

Input line: In this assay, the call recorded for "CC[C@H]1CCC/C=C/[C@@H]2C[C@H](O)C[C@H]2[C@H](O)/C=C/C(=O)O1" was what?
Output line: yes (1)

Input line: In this assay, the call recorded for "CCN(CC)CCOc1ccc2c(c1O)C(=O)c1ccccc1C2=O" was what?
Output line: no (0)

Input line: In this assay, the call recorded for "CC(=O)Nc1ccc2nc3ccc(NC(C)=O)cc3[n+](-c3ccccc3)c2c1" was what?
Output line: yes (1)
